Assay Target: MurA (E. coli) (Escherichia coli)
Construct: made in house; host or cells: E. coli
Assay Remarks: MurA assay, colorimetric malachite green method
Type: biochemical
Assay Context: fragment 500 μM, 30 min preincubation at 37 °C; read-out: RA (remaining activity) at 500 µM
Method: MurAEC protein was recombinant, expressed in E. coli. The inhibition of MurA was monitored with the colorimetric malachite green method in which orthophosphate generated during the reaction is measured. […] After incubation for 15 min at 37 °C, the enzyme reaction was terminated by adding Biomol® reagent (100μL) and the absorbance was measured at 650 nm after 5 min. […] Remaining activities (RAs) were calculated with respect to similar assays without the tested compounds and with 5% DMSO. […]
Property Measured: remaining activity at 500 µM (%)
The reply should contain only the number, in %.

[Q] State recorded remaining activity at 500 µM with MurA (E. coli) (Escherichia coli), entry CNC1=C(Br)C(=O)C1(C)C [15a] , no comment.
[A] 100

[Q] Enter remaining activity at 500 µM (test system MurA (E. coli) (Escherichia coli)) for CN(CC(F)(F)F)C1=CC(=O)C1(C)C [14e]
[A] 98

[Q] Enter remaining activity at 500 µM (test system MurA (E. coli) (Escherichia coli)) for CNC1=CC(=O)C1(C)C [14a]
[A] 93

[Q] # return remaining activity at 500 µM of "CCOC1=CC(=O)C1(C)C" (system: MurA (E. coli) (Escherichia coli))
[A] 98

[Q] State recorded remaining activity at 500 µM with MurA (E. coli) (Escherichia coli), entry COc1ccc(CN(C)C2=CC(=O)C2(C)C)cc1 [14d] , no comment.
[A] 99

[Q] Supply remaining activity at 500 µM measured with MurA (E. coli) (Escherichia coli) for CCN(CC)C1=C(Br)C(=O)C1(C)C [15c] .
[A] 88

[Q] Give measured remaining activity at 500 µM for CN(CC(F)(F)F)C1=C(Br)C(=O)C1(C)C [15e] (MurA (E. coli) (Escherichia coli)).
[A] 84

[Q] Give remaining activity at 500 µM only, for CCN(CC)C1=CC(=O)C1(C)C [14c] , using MurA (E. coli) (Escherichia coli) data.
[A] 96

[Q] Output reported remaining activity at 500 µM of the compound CN(C)C1=CC(=O)C1(C)C [14b] on MurA (E. coli) (Escherichia coli).
[A] 99

[Q] Fill: remaining activity at 500 µM (MurA (E. coli) (Escherichia coli)) for this compound CN(C(=O)c1ccccc1)C1=CC(=O)C1(C)C [16a]
[A] 99

[Q] Provide remaining activity at 500 µM, system MurA (E. coli) (Escherichia coli), entry CC(=O)N(C)C1=C(Br)C(=O)C1(C)C [17b]
[A] 8

[Q] With MurA (E. coli) (Escherichia coli) as the test system, provide measured remaining activity at 500 µM for this compound: CN(C(=O)c1ccccc1)C1=C(Br)C(=O)C1(C)C [17a]
[A] 12

====

Assay Target: MurA (E. coli) (Escherichia coli, UniProt P0A749)
Construct: made in house; host or cells: E. coli
Sequence (P0A749 whole entry): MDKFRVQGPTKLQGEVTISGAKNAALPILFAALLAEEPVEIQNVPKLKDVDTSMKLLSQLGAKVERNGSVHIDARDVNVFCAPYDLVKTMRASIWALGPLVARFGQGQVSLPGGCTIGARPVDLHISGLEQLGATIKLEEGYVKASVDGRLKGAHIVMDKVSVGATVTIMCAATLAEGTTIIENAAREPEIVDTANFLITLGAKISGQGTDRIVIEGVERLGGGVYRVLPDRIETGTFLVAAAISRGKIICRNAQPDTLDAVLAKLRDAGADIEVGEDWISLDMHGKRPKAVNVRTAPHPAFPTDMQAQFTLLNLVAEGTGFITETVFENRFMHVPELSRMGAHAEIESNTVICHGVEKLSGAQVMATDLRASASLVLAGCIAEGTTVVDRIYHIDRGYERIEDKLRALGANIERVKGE
Assay Remarks: MurA assay, colorimetric malachite green method
Format: biochemical
Assay Context: IC50, 30 min preincubation
Experimental: MurAEC protein was recombinant, expressed in E. coli. The inhibition of MurA was monitored with the colorimetric malachite green method in which orthophosphate generated during the reaction is measured. […] After incubation for 15 min at 37 °C, the enzyme reaction was terminated by adding Biomol® reagent (100μL) and the absorbance was measured at 650 nm after 5 min. […] Remaining activities (RAs) were calculated with respect to similar assays without the tested compounds and with 5% DMSO. […]
Property Measured: IC50 (µM)
Form entry: value (µM) — number only.

[Q] Determine its reported IC50: CN(C(=O)c1ccccc1)C1=C(Br)C(=O)C1(C)C [17a]
[A] 138
